Below: a set of entries, each annotated with reported EC50.
Biological target: T1, Fusion protein of extracellular domain of human TIGIT and mouse IgG2a Fc fragment (human TIGIT ECD-mFc) (human)
T1 construct: The entry includes the signal peptide (limits not recoverable) and the mouse IgG2a Fc
T1 chain: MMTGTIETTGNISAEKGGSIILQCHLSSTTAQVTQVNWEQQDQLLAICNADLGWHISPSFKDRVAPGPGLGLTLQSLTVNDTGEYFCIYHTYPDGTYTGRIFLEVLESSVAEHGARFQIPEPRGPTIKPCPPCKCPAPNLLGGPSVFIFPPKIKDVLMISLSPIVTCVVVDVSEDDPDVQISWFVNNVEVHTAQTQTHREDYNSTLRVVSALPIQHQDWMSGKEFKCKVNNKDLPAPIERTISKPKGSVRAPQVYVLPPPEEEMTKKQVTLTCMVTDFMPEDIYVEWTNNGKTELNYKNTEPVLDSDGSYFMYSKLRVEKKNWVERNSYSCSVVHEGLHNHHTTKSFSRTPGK
Experiment: ELISA, human TIGIT ECD-mFc
Note: a bare number is incomplete; add the unit.

The following binders have reported results that may help.
* TIGIT-002-H1L3 (antibody, V domains shown, Humanized anti-TIGIT antibody) VH: EVQLQESGPGLVKPSETLSLTCAVSGYSITSDSWNWIRQPPGKGLEWIGYISYSGNTYYNPSLKSRVTISRDTSKNQFSLKLSSVTAADTAVYYCARLDFSNYGGAVDYWGQGTTVTVSS VL: DIVMTQSPDSLAVSLGERATINCKASQNVRTAVAWYQQKPGQSPKLMIYSASYRYTGVPDRFSGSGSGTDFTLTISSLQAEDVAVYYCQQYYTTPWTFGGGTKVEIK | 0.0157 nM
* TIGIT-002-H3L3 (antibody, V domains shown, Humanized anti-TIGIT antibody) VH: EVQLQESGPGLVKPSETLSLTCAVSGYSITSDSWNWIRQPPGKKLEWMGYISYSGNTYYNPSLKSRITISRDTSKNQFSLKLSSVTAADTAVYYCARLDFSNYGGAVDYWGQGTTVTVSS VL: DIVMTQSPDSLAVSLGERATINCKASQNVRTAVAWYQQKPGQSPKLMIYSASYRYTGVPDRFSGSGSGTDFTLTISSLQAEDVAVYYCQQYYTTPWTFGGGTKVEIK | 0.0173 nM

Qu. Name the recorded EC50 for TIGIT-006-H3L3 (antibody, V domains shown, Humanized anti-TIGIT antibody) VH: EVQLQESGPGLVKPSETLSLTCAVSGYSMTSDYWNWIRQPPGKKLEWIGYISYSGRTYYNPSLKSRVTISRDTSKNQFSLKLSSVTAADTAVYYCARGDYSNYGGAMYDWGQGTTVTVSS VL: DIVMTQSPDSLAVSLGERATINCRASQGVSTTIAWYQQKPGQSPKLLIYSASYRYTGVPRFSGSGSGTDFTLTISSLQAEDVAVYYCQQYYSSPFTFGGGTKVEIK .
Ans. 0.0095 nM

Qu. Name the recorded EC50 for TIGIT-002-H4L2 (antibody, V domains shown, Humanized anti-TIGIT antibody) VH: EVQLQESGPGLVKPSETLSLTCAVSGYSITSDSWNWIRQPPGKKLEYIGYISYSGNTYYNPSLKSRVTISRDTSKNQFSLKLSSVTAADTAVYYCARLDFSNYGGAVDYWGQGTTVTVSS VL: DIVMTQTPLSLSVTPGQPASISCKASQNVRTAVAWYQQKPGQSPQLMIYSASYRYTGVPDRFSGSGSGTDFTLKISRVEAEDVGVYYCQQYYTTPWTFGGGTKVEIK .
Ans. 0.0179 nM

Qu. Name the recorded EC50 for TIGIT-070-H2L3 (antibody, V domains shown, Humanized anti-TIGIT antibody) VH: EVQLVQSGAEVKKPGASVKVSCKASGYTFTNYYMHWVRQAPGQRLEWMGRIDPDSGGSKYNEKFKSRVTITVDKLSSTAYMELSSLRSEDTAVYYCAREGHYGFYSDYWGQGTTVTVSS VL: DIVMTQSPDSLAVSLGERATINCRVSENIYSYLAWYQQKPGQSPKLLVYNAKTLAEGVPDRFSGSGSGTDFTLTISSLQAEDVAVYYCQHHYGNPLTFGPGTKVDIK .
Ans. 0.0119 nM

Qu. Name the recorded EC50 for TIGIT-002-H1L2 (antibody, V domains shown, Humanized anti-TIGIT antibody) VH: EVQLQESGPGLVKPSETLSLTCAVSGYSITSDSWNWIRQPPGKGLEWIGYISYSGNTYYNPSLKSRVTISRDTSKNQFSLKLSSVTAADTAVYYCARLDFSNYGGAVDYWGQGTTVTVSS VL: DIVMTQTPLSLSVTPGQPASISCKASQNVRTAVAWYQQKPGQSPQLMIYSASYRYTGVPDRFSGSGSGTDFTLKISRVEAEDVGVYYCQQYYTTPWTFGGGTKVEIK .
Ans. 0.0158 nM

Qu. Name the recorded EC50 for TIGIT-006-H5L3 (antibody, V domains shown, Humanized anti-TIGIT antibody) VH: EVQLQESGPGLVKPSETLSLTCAVSGYSMTSDYWNWIRQPPGKKLEYIGYISYSGRTYYNPSLKSRVTISRDTSKNQFSLKLSSVTAADTAVYYCARGDYSNYGGAMYDWGQGTTVTVSS VL: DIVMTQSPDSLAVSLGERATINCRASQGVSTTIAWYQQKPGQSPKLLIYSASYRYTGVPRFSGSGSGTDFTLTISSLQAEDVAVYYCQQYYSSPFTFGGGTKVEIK .
Ans. 0.0092 nM
